Origin of the recorded values: ChEMBL document CHEMBL3044736

system: Aspergillus clavatus; experiment: Antimicrobial activity against Aspergillus clavatus MTCC 1323 assessed as diameter of growth inhibition zone at 50 ug/ml after 48-96 hr by agar cup diffusion method; type: functional; conditions: read-out: DIZ
Exercise: state measured zone of inhibition at 50 µg/mL for each of the molecules provided.
Kindly answer with a numeric value in mm, unit omitted.

[Q] // zone of inhibition at 50 µg/mL lookup, key: "O=C(/C=C/c1ccc(O)cc1)C1C(=O)NC(=S)NC1=O"
[A] 21

[Q] // zone of inhibition at 50 µg/mL lookup, key: "Cc1ccc(/C=C/C(=O)C2C(=O)NC(=S)NC2=O)cc1"
[A] 22

[Q] // zone of inhibition at 50 µg/mL lookup, key: "COc1ccc(/C=C/C(=O)C2C(=O)NC(=S)NC2=O)cc1OC"
[A] 20

[Q] // zone of inhibition at 50 µg/mL lookup, key: "O=C(/C=C/c1ccccc1O)C1C(=O)NC(=S)NC1=O"
[A] 19

[Q] // zone of inhibition at 50 µg/mL lookup, key: "O=C(/C=C/c1ccccc1Cl)C1C(=O)NC(=S)NC1=O"
[A] 19

[Q] // zone of inhibition at 50 µg/mL lookup, key: "O=C(/C=C/c1ccc2ccccc2c1)C1C(=O)NC(=S)NC1=O"
[A] 20

[Q] // zone of inhibition at 50 µg/mL lookup, key: "O=C(/C=C/c1cccc([N+](=O)[O-])c1)C1C(=O)NC(=S)NC1=O"
[A] 22

[Q] // zone of inhibition at 50 µg/mL lookup, key: "O=C(/C=C/c1ccc(Cl)cc1)C1C(=O)NC(=S)NC1=O"
[A] 20

[Q] // zone of inhibition at 50 µg/mL lookup, key: "O=C(/C=C/c1ccc([N+](=O)[O-])cc1)C1C(=O)NC(=S)NC1=O"
[A] 21

[Q] // zone of inhibition at 50 µg/mL lookup, key: "O=C(/C=C/c1ccccc1)C1C(=O)NC(=S)NC1=O"
[A] 19

[Q] // zone of inhibition at 50 µg/mL lookup, key: "COc1ccc(/C=C/C(=O)C2C(=O)NC(=S)NC2=O)cc1"
[A] 21

---

tested on: Penicillium; assay: Antimicrobial activity against Penicillium wild strain assessed as diameter of growth inhibition zone at 25 ug/ml after 48-96 hr by agar cup diffusion method; assay type: functional; settings: read-out: DIZ
Attribute Measured: zone of inhibition at 25 µg/mL (mm)
Kindly answer with a numeric value in mm, unit omitted.

[Q] I'm curious: which zone of inhibition at 25 µg/mL was measured for "O=C(/C=C/c1ccccc1O)C1C(=O)NC(=S)NC1=O" tested on Penicillium?
[A] 18

[Q] I'm curious: which zone of inhibition at 25 µg/mL was measured for "O=C(/C=C/c1ccc(Cl)cc1)C1C(=O)NC(=S)NC1=O" tested on Penicillium?
[A] 19

[Q] I'm curious: which zone of inhibition at 25 µg/mL was measured for "COc1ccc(/C=C/C(=O)C2C(=O)NC(=S)NC2=O)cc1OC" tested on Penicillium?
[A] 19

[Q] I'm curious: which zone of inhibition at 25 µg/mL was measured for "O=C(/C=C/c1ccccc1Cl)C1C(=O)NC(=S)NC1=O" tested on Penicillium?
[A] 18

[Q] I'm curious: which zone of inhibition at 25 µg/mL was measured for "O=C(/C=C/c1ccc(O)cc1)C1C(=O)NC(=S)NC1=O" tested on Penicillium?
[A] 18

[Q] I'm curious: which zone of inhibition at 25 µg/mL was measured for "O=C(/C=C/c1ccc([N+](=O)[O-])cc1)C1C(=O)NC(=S)NC1=O" tested on Penicillium?
[A] 21

[Q] I'm curious: which zone of inhibition at 25 µg/mL was measured for "COc1ccc(/C=C/C(=O)C2C(=O)NC(=S)NC2=O)cc1" tested on Penicillium?
[A] 21

[Q] I'm curious: which zone of inhibition at 25 µg/mL was measured for "O=C(/C=C/c1ccc2ccccc2c1)C1C(=O)NC(=S)NC1=O" tested on Penicillium?
[A] 18

[Q] I'm curious: which zone of inhibition at 25 µg/mL was measured for "O=C(/C=C/c1cccc([N+](=O)[O-])c1)C1C(=O)NC(=S)NC1=O" tested on Penicillium?
[A] 18

[Q] I'm curious: which zone of inhibition at 25 µg/mL was measured for "O=C(/C=C/c1ccccc1)C1C(=O)NC(=S)NC1=O" tested on Penicillium?
[A] 19

[Q] I'm curious: which zone of inhibition at 25 µg/mL was measured for "Cc1ccc(/C=C/C(=O)C2C(=O)NC(=S)NC2=O)cc1" tested on Penicillium?
[A] 18

---

test system: Staphylococcus aureus; test: Antimicrobial activity against Staphylococcus aureus MTCC 96 assessed as diameter of growth inhibition zone at 100 ug/ml after 18-24 hr by agar cup diffusion method; assay type: functional; settings: read-out: DIZ
Attribute Measured: zone of inhibition at 100 µg/mL (mm)
Kindly answer with a numeric value in mm, unit omitted.

[Q] // zone of inhibition at 100 µg/mL lookup, key: "O=C(/C=C/c1ccc(O)cc1)C1C(=O)NC(=S)NC1=O"
[A] 16

[Q] // zone of inhibition at 100 µg/mL lookup, key: "O=C(/C=C/c1ccc2ccccc2c1)C1C(=O)NC(=S)NC1=O"
[A] 15

[Q] // zone of inhibition at 100 µg/mL lookup, key: "O=C(/C=C/c1ccccc1Cl)C1C(=O)NC(=S)NC1=O"
[A] 17

[Q] // zone of inhibition at 100 µg/mL lookup, key: "COc1ccc(/C=C/C(=O)C2C(=O)NC(=S)NC2=O)cc1"
[A] 18

[Q] // zone of inhibition at 100 µg/mL lookup, key: "Cc1ccc(/C=C/C(=O)C2C(=O)NC(=S)NC2=O)cc1"
[A] 16

[Q] // zone of inhibition at 100 µg/mL lookup, key: "O=C(/C=C/c1ccc([N+](=O)[O-])cc1)C1C(=O)NC(=S)NC1=O"
[A] 18

[Q] // zone of inhibition at 100 µg/mL lookup, key: "O=C(/C=C/c1ccccc1)C1C(=O)NC(=S)NC1=O"
[A] 15

[Q] // zone of inhibition at 100 µg/mL lookup, key: "O=C(/C=C/c1cccc([N+](=O)[O-])c1)C1C(=O)NC(=S)NC1=O"
[A] 17

[Q] // zone of inhibition at 100 µg/mL lookup, key: "COc1ccc(/C=C/C(=O)C2C(=O)NC(=S)NC2=O)cc1OC"
[A] 18

[Q] // zone of inhibition at 100 µg/mL lookup, key: "O=C(/C=C/c1ccc(Cl)cc1)C1C(=O)NC(=S)NC1=O"
[A] 13

[Q] // zone of inhibition at 100 µg/mL lookup, key: "O=C(/C=C/c1ccccc1O)C1C(=O)NC(=S)NC1=O"
[A] 17

---

test system: Aspergillus clavatus; experiment: Antimicrobial activity against Aspergillus clavatus MTCC 1323 by agar cup diffusion method; type: functional
Attribute Measured: MIC (µg/mL)
Kindly answer with a numeric value in µg/mL, unit omitted.

[Q] // MIC lookup, key: "O=C(/C=C/c1ccc(Cl)cc1)C1C(=O)NC(=S)NC1=O"
[A] 500

[Q] // MIC lookup, key: "O=C(/C=C/c1ccc(O)cc1)C1C(=O)NC(=S)NC1=O"
[A] 500

[Q] // MIC lookup, key: "COC1=CC(=O)C[C@@H](C)[C@]12Oc1c(Cl)c(OC)cc(OC)c1C2=O"
[A] 100

[Q] // MIC lookup, key: "O=C(/C=C/c1ccccc1)C1C(=O)NC(=S)NC1=O"
[A] 1000

[Q] // MIC lookup, key: "COc1ccc(/C=C/C(=O)C2C(=O)NC(=S)NC2=O)cc1"
[A] 500

[Q] // MIC lookup, key: "O=C(/C=C/c1ccc([N+](=O)[O-])cc1)C1C(=O)NC(=S)NC1=O"
[A] 1000

[Q] // MIC lookup, key: "O=C(/C=C/c1cccc([N+](=O)[O-])c1)C1C(=O)NC(=S)NC1=O"
[A] 1000

[Q] // MIC lookup, key: "COc1ccc(/C=C/C(=O)C2C(=O)NC(=S)NC2=O)cc1OC"
[A] 1000

---

Exercise: state measured MBC for each of the compounds provided.
test system: Staphylococcus aureus; test: Antimicrobial activity against Staphylococcus aureus MTCC 96 by agar cup diffusion method; assay type: functional
Kindly answer with a numeric value in mg/L, unit omitted.

[Q] // MBC lookup, key: "COc1ccc(/C=C/C(=O)C2C(=O)NC(=S)NC2=O)cc1"
[A] 250

[Q] // MBC lookup, key: "O=C(/C=C/c1ccc(O)cc1)C1C(=O)NC(=S)NC1=O"
[A] 500

[Q] // MBC lookup, key: "O=C(/C=C/c1ccccc1)C1C(=O)NC(=S)NC1=O"
[A] 250

[Q] // MBC lookup, key: "O=C(/C=C/c1ccc(Cl)cc1)C1C(=O)NC(=S)NC1=O"
[A] 100

[Q] // MBC lookup, key: "O=C(/C=C/c1ccc2ccccc2c1)C1C(=O)NC(=S)NC1=O"
[A] 250

[Q] // MBC lookup, key: "O=C(/C=C/c1cccc([N+](=O)[O-])c1)C1C(=O)NC(=S)NC1=O"
[A] 250

[Q] // MBC lookup, key: "COc1ccc(/C=C/C(=O)C2C(=O)NC(=S)NC2=O)cc1OC"
[A] 500

[Q] // MBC lookup, key: "O=C(/C=C/c1ccc([N+](=O)[O-])cc1)C1C(=O)NC(=S)NC1=O"
[A] 200

[Q] // MBC lookup, key: "O=C(/C=C/c1ccccc1Cl)C1C(=O)NC(=S)NC1=O"
[A] 500

[Q] // MBC lookup, key: "Cc1ccc(/C=C/C(=O)C2C(=O)NC(=S)NC2=O)cc1"
[A] 125

[Q] // MBC lookup, key: "O=C(/C=C/c1ccccc1O)C1C(=O)NC(=S)NC1=O"
[A] 500
